Give measured Turns content for each item. Keep answers brief.
Bridges are numbered along the chain shown (N, C = ends). Where no end group is shown, it is not given here.
Give bare numbers, in %.

See these solved cases before continuing.
DFKSGKFKGGCMAWSGEKCRRLCKEQGAVSGHCSSNFKCWCEM (disulfide 11-33, 19-39, 23-41 (inferred)) [DtDRS-11] ... 15
RDFLSGTFGGPCWAWSGEKCRRLCIEEGHVSGHCSGAMKCWCEG (disulfide 12-34, 20-40, 24-42 (inferred)) [DRS-3-WDB] ... 18

Proceeding to the next sequence to report its Turns content.
// query Turns content value for entry DFLSGKFKGGCMMWSGEKCRRLCKEQGAVSGHCSTNFKCWCEE (disulfide 11-33, 19-39, 23-41 (inferred)) [DtDRS-11d]
15

Entry source: paper PMC4999892
